This collection of values is drawn from patent US9828378B2.

Target: PI3K β (Homo sapiens (Human))
Sequence (P42338 whole entry): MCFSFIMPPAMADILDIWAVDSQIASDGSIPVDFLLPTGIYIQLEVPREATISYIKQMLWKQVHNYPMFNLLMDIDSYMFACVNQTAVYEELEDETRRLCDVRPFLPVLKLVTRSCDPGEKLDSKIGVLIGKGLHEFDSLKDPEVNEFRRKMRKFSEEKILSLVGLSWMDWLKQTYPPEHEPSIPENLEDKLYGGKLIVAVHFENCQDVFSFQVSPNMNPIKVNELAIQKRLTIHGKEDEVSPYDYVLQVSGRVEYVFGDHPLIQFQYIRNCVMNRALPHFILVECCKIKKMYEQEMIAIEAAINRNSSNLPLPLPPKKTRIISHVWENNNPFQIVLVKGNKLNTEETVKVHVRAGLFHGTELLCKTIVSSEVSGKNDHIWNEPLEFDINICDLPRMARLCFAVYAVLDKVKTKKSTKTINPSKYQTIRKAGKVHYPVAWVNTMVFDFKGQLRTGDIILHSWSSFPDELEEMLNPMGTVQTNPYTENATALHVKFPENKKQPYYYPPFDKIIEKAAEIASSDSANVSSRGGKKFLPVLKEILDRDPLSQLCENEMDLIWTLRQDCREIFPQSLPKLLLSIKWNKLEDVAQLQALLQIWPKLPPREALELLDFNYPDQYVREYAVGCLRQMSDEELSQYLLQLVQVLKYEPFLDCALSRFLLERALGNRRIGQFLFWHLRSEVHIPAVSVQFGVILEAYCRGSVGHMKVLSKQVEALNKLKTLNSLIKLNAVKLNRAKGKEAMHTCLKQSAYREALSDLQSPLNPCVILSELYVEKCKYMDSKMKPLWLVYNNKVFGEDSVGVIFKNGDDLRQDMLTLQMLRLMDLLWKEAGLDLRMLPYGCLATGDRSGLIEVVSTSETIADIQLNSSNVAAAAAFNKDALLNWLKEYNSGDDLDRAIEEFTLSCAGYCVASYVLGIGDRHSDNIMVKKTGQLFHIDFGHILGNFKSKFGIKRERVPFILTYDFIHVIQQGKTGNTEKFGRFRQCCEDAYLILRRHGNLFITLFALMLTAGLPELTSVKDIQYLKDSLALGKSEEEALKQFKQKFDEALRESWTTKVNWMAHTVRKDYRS
Sequence (P27986 whole entry partner): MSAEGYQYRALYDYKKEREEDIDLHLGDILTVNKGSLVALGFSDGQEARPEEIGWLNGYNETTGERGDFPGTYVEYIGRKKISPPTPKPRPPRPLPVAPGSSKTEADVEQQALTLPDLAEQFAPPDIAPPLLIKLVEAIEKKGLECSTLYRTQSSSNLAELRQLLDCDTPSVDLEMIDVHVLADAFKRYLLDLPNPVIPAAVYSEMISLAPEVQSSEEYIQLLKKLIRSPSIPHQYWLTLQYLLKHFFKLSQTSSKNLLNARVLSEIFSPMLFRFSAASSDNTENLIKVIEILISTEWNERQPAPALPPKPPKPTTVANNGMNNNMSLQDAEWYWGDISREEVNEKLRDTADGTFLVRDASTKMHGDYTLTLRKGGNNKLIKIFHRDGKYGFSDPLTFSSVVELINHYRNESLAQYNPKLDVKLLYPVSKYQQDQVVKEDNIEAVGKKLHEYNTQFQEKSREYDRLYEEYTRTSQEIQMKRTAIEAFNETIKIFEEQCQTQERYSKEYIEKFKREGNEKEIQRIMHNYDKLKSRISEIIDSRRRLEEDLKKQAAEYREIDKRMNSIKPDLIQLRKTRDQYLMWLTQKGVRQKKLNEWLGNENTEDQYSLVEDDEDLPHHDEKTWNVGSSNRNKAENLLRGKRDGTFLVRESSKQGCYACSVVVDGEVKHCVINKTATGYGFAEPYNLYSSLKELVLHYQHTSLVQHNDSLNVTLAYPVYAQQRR
Test: PI3K β inhibition assay
Format: biochemical
value_type: IC50

Documented IC50 of CNC(=O)Nc1nc2ccc(-c3cn(C(C)C)c4ncnc(N)c34)cc2s1 : ≤ 50 nM

====

Target: mTORC (Homo sapiens (Human), UniProt P42345)
Assay: mTOR kinase inhibition assay
Format: biochemical
Conditions: Table 1; read-out: mTORC IC50
pIC50: −log10 of the molar value.
value_type: pIC50

# compound, pIC50
data = [
    ("Cc1nccn1CCn1nc(-c2cc3cc(O)ccc3[nH]2)c2c(N)ncnc21 [Compound 44]", "> 7.00"),
    ("CC(C)n1nc(-c2cc3c(Cl)ccc(O)c3[nH]2)c2c(N)ncnc21 [Compound 39]", "> 8.00"),
    ("Nc1ncnc2c1c(-c1cc3cc(O)ccc3[nH]1)nn2Cc1cccnc1 [Compound 38]", "> 6.30"),
    ("CC(C)N1CCC(n2nc(-c3cc4cc(O)ccc4[nH]3)c3c(N)ncnc32)CC1 [Compound 55]", "> 6.30"),
    ("CC(C)n1nc(-c2cc3ccc(C#N)cc3[nH]2)c2c(N)ncnc21 [Compound 24]", "< 6.30"),
]

I need pIC50 for every entry listed below, if you could help.
1. CC(C)n1nc(-c2cc3cccc(Cl)c3[nH]2)c2c(N)ncnc21 [Compound 50]
2. COc1cc(Cl)c2[nH]c(-c3nn(C4CCOCC4)c4ncnc(N)c34)cc2c1 [Compound 67]
3. Nc1ncnc2c1c(-c1cc3cc(O)ccc3[nH]1)nn2C1CCCCC1 [Compound 26]

> 7.30
< 6.30
> 8.00

====

Target: UniProt:P42345
Assay: mTOR kinase inhibition assay
Format: biochemical
Conditions: Table 1; read-out: mTORC IC50
value_type: IC50

# molecule, IC50
rows = [
    ("Nc1ncnc2c1c(-c1cc3cc(O)ccc3[nH]1)nn2C1CC(N2CCOCC2)C1 (stereo not drawn) [Compound 49]", "< 10 nM"),
    ("Nc1ncnc2c1c(-c1cc3cccc(O)c3[nH]1)nn2C1CCOCC1 [Compound 62]", "< 5 nM"),
    ("Nc1ncnc2c1c(-c1cc3cccc(Cl)c3[nH]1)nn2C1CCOCC1 [Compound 51]", "< 50 nM"),
    ("Nc1ncnc2c1c(-c1cc3cc(O)ccc3[nH]1)nn2C1CCOCC1 [Compound 42]", "< 5 nM"),
    ("CC(C)N1CCC(n2nc(-c3cc4cccc(O)c4[nH]3)c3c(N)ncnc32)CC1 [Compound 64]", "< 25 nM"),
    ("COc1ccc(Cl)c2cc(-c3nn(C4CCOCC4)c4ncnc(N)c34)[nH]c12 [Compound 61]", "< 25 nM"),
    ("CNC(=O)Cn1nc(-c2cc3cc(O)ccc3[nH]2)c2c(N)ncnc21 [Compound 35]", "> 500 nM"),
    ("CCOC(=O)Cn1nc(-c2cc3cc(O)ccc3[nH]2)c2c(N)ncnc21 [Compound 28]", "< 500 nM"),
]

The molecule COc1ccc2cc(-c3nn(C4CCOCC4)c4ncnc(N)c34)[nH]c2c1 [Compound 59] , when measured on UniProt:P42345, yielded IC50 of > 500 nM

====

Molecular target: PI3K δ (Homo sapiens (Human))
Sequence (O00329 whole entry): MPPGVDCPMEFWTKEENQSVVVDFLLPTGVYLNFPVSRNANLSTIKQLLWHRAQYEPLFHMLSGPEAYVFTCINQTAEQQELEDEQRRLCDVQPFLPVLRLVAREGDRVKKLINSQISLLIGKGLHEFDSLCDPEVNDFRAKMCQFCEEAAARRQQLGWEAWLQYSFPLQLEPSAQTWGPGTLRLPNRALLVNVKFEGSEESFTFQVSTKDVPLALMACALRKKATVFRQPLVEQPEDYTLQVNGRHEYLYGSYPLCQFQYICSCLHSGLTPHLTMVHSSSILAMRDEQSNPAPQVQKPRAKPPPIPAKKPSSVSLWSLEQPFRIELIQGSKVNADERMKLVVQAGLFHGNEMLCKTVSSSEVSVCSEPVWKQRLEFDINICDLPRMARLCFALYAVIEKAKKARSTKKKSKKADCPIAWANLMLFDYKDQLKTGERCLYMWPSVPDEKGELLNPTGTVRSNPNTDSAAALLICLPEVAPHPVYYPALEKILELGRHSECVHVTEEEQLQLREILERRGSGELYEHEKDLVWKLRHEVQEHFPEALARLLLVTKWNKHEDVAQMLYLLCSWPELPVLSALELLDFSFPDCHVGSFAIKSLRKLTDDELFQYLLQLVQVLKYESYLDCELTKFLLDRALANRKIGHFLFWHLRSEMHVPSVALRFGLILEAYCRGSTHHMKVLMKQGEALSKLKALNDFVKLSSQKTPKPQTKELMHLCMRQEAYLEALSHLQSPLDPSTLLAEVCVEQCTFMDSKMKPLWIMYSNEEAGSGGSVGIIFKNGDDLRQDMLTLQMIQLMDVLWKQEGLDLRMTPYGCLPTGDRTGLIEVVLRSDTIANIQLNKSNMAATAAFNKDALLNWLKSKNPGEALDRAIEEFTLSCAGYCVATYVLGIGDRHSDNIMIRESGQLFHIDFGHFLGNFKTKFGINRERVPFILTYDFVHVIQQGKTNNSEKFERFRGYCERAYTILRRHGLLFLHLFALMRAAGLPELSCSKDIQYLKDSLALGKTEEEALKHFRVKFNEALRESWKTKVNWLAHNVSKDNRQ
Sequence (P27986 whole entry partner): as the sequence (P27986 whole entry partner) above
Test: PI3K δ inhibition assay
Type: biochemical
Conditions: Table 2; compound numbers of Table 3; read-out: IC50 results PI3K delta
pIC50: −log10 of the molar value.
value_type: pIC50

The observed pIC50 for CNC(=O)Nc1nc2ccc(-c3nn(C4CCN(C(C)=O)CC4)c4ncnc(N)c34)cc2s1 when tested with PI3K δ (Homo sapiens (Human)) stands at ≥ 7.30
